Structures can show the parent of a compound that is named as a salt.
OBSERVATION TYPE: melting point

Request: Requested read-out: melting point. Entry: Cc1csc(-c2nc(CNC(=O)C3CCOC3)[nH]c2-c2ccc3ncsc3c2)n1 (centres unmarked)
Result: 174 to 175 °C

Request: Requested read-out: melting point. Entry: CNCC(=O)NCc1nc(-c2nc(C)cs2)c(-c2ccc3ncsc3c2)[nH]1
Result: 200.5 to 203.5 °C

Request: Requested read-out: melting point. Entry: CCc1csc(-c2nc(-c3ccc(C(N)=O)cc3)[nH]c2-c2ccc3c(c2)OCO3)n1
Result: 259.5 to 261.5 °C

Request: Requested read-out: melting point. Entry: CCOC(=O)NCc1nc(-c2nc(C)cs2)c(-c2ccc3ncsc3c2)[nH]1
Result: 183 to 184 °C

Request: Requested read-out: melting point. Entry: CCCNC(=O)CCc1nc(-c2nc(C)cs2)c(-c2ccc3c(c2)OCO3)[nH]1
Result: 106.5 to 108.5 °C

Request: Requested read-out: melting point. Entry: C=CCOC(=O)NCc1nc(-c2nc(C)cs2)c(-c2ccc3ncsc3c2)[nH]1 (as salt: HCl)
Result: 174 to 175 °C

Request: Requested read-out: melting point. Entry: Cc1csc(-c2nc(-c3ccc(C#N)cc3)[nH]c2-c2ccc(F)cc2)n1
Result: 283.5 to 286 °C

Request: Requested read-out: melting point. Entry: Cc1csc(-c2nc(CCC(=O)NC(C)(C)C)[nH]c2-c2ccc3ncsc3c2)n1
Result: 201.5 to 202 °C

----------
Where a name gives a salt, the structure may show the parent alone.
OBSERVATION TYPE: melting point

Cc1csc(-c2nc(CCC(=O)N3CCCCC3)[nH]c2-c2ccc3ncsc3c2)n1 = 179 to 180 °C

Request: Requested read-out: melting point. Entry: Cc1csc(-c2nc(CCCCC(=O)Nc3ccccc3)[nH]c2-c2ccc3ncsc3c2)n1 (as salt: HCl)
Result: 105 to 117.5 °C

Request: Requested read-out: melting point. Entry: Cc1csc(-c2nc(N)[nH]c2-c2ccc3c(c2)OCO3)n1
Result: 205.5 to 208 °C

----------
OBSERVATION TYPE: melting point

COCC(=O)NCc1nc(-c2nc(C)cs2)c(-c2ccc3ncsc3c2)[nH]1 = 223.5 to 224 °C
Cc1csc(-c2nc(CCC(=O)N3CCN(C)CC3)[nH]c2-c2ccc3ncsc3c2)n1 = 201 to 201.5 °C
Cc1csc(-c2nc(CNC(=O)CCC(C)C)[nH]c2-c2ccc3ncsc3c2)n1 = 172.5 to 173.5 °C
Cc1csc(-c2nc(CNC(=O)CCN(C)C)[nH]c2-c2ccc3ncsc3c2)n1 = 150 to 150.5 °C

Request: Requested read-out: melting point. Entry: COc1ccc(CNC(=O)CCCCc2nc(-c3nc(C)cs3)c(-c3ccc4ncsc4c3)[nH]2)cc1
Result: 140 to 140.5 °C

Request: Requested read-out: melting point. Entry: CCCCCNC(=O)NCc1nc(-c2nc(C)cs2)c(-c2ccc3ncsc3c2)[nH]1
Result: 199 to 201 °C

Request: Requested read-out: melting point. Entry: COc1ccc(CC(=O)NCc2nc(-c3nc(C)cs3)c(-c3ccc4c(c3)OCO4)[nH]2)cc1
Result: 165.5 to 169.5 °C

Request: Requested read-out: melting point. Entry: COC(=O)CCc1nc(-c2nc(C)cs2)c(-c2ccc3ncsc3c2)[nH]1
Result: 168.5 to 170.5 °C

Request: Requested read-out: melting point. Entry: Cc1csc(-c2nc(CNC(=O)CN(C)C)[nH]c2-c2ccc3ncsc3c2)n1
Result: 211.5 to 212.5 °C

Request: Requested read-out: melting point. Entry: Cc1csc(-c2nc(C(=O)Nc3ccccc3)[nH]c2-c2ccc3c(c2)OCO3)n1
Result: 222 to 222.5 °C

Request: Requested read-out: melting point. Entry: Cc1csc(-c2nc(CCC(=O)NCCN(C)C)[nH]c2-c2ccc3ncsc3c2)n1
Result: 163.5 to 164 °C
